- Target: Tyrosine-protein kinase JAK2 (Homo sapiens)
- Test Details: primary HTS for Janus kinase 2 inhibitors, biochemical, Homo sapiens, LANCE Ultra TR-FRET detection, NCGC Pharmaceutical Collection (AID 1117354)
- Condition Label: LANCE Ultra TR-FRET kinase assay, at 20 µM (top of the series)
Recorded inhibition for the following molecules
Property Measured: inhibition (%)

molecule=COc1cc(NCc2ccc3nc(N)nc(N)c3c2C)cc(OC)c1OC target="Tyrosine-protein kinase JAK2 (Homo sapiens)" property_measured=inhibition experimental_value=26.2
molecule="COc1ccc(-c2nc3ccc(C4=NNC(=O)CC4C)cc3[nH]2)cc1 (configuration not stated)" target="Tyrosine-protein kinase JAK2 (Homo sapiens)" property_measured=inhibition experimental_value=-0.61
molecule=CCc1nc(N)nc(N)c1-c1ccc(Cl)cc1 target="Tyrosine-protein kinase JAK2 (Homo sapiens)" property_measured=inhibition experimental_value=-6.66
molecule=CC[C@]1(O)C[C@@H]2CN(CCc3c([nH]c4ccccc34)[C@@](C(=O)OC)(c3cc4c(cc3OC)N(C)[C@H]3[C@@](O)(C(=O)OC)[C@H](OC(C)=O)[C@]5(CC)C=CCN6CC[C@]43[C@@H]65)C2)C1 target="Tyrosine-protein kinase JAK2 (Homo sapiens)" property_measured=inhibition experimental_value=5.49
molecule="COC(=O)Nc1nc2ccc(S(=O)c3ccccc3)cc2[nH]1 (configuration not stated)" target="Tyrosine-protein kinase JAK2 (Homo sapiens)" property_measured=inhibition experimental_value=-7.42
molecule=COC(=O)Nc1nc2ccc(C(=O)C3CC3)cc2[nH]1 target="Tyrosine-protein kinase JAK2 (Homo sapiens)" property_measured=inhibition experimental_value=21.4
molecule=CC(=O)[C@]1(O)Cc2c(O)c3c(c(O)c2[C@@H](O[C@H]2C[C@H](N)[C@H](O)[C@H](C)O2)C1)C(=O)c1ccccc1C3=O target="Tyrosine-protein kinase JAK2 (Homo sapiens)" property_measured=inhibition experimental_value=29.1
molecule=Oc1c(Cl)cc(Cl)c2cccnc12 target="Tyrosine-protein kinase JAK2 (Homo sapiens)" property_measured=inhibition experimental_value=-13.9
molecule=COC(=O)[C@H]1[C@H]2C[C@@H]3c4[nH]c5cc(OC)ccc5c4CCN3C[C@H]2C[C@@H](OC(=O)/C=C/c2ccc(O)c(OC)c2)[C@@H]1OC target="Tyrosine-protein kinase JAK2 (Homo sapiens)" property_measured=inhibition experimental_value=9.23
molecule=Cn1cnc([N+](=O)[O-])c1Sc1ncnc2nc[nH]c12 target="Tyrosine-protein kinase JAK2 (Homo sapiens)" property_measured=inhibition experimental_value=-15.7
molecule=O=[N+]([O-])c1ccc(O)c2ncccc12 target="Tyrosine-protein kinase JAK2 (Homo sapiens)" property_measured=inhibition experimental_value=1.93
molecule=CC[C@]1(O)C[C@H]2CN(CCc3c([nH]c4ccccc34)[C@@](C(=O)OC)(c3cc4c(cc3OC)N(C=O)[C@H]3[C@@](O)(C(=O)OC)[C@H](OC(C)=O)[C@]5(CC)C=CCN6CC[C@]43[C@@H]65)C2)C1 target="Tyrosine-protein kinase JAK2 (Homo sapiens)" property_measured=inhibition experimental_value=9

---

- Target: Tyrosine-protein kinase JAK2 (Homo sapiens)
- Test Details: primary HTS for Janus kinase 2 inhibitors, biochemical, Homo sapiens, LANCE Ultra TR-FRET detection, NCGC Pharmaceutical Collection (AID 1117354)
- Condition Label: LANCE Ultra TR-FRET kinase assay, at 20 µM (top of the series)
Listing of entries alongside the reported inhibition.
Property Measured: inhibition (%)

molecule=O=c1[nH]c(=O)n([C@H]2C[C@H](O)[C@@H](CO)O2)cc1C(F)(F)F experimental_value=14.7
molecule="CCCN(CCC)C(=O)C(CCC(=O)OCCCN1CCN(CCOC(=O)Cc2c(C)n(C(=O)c3ccc(Cl)cc3)c3ccc(OC)cc23)CC1)NC(=O)c1ccccc1 (configuration not stated)" experimental_value=12.5
molecule="C[n+]1c2cc(N)ccc2cc2ccc(N)cc21 (tested in a mixture with another compound)" experimental_value=8.06
molecule=[O-][n+]1ccccc1SSc1cccc[n+]1[O-] experimental_value=-17.3
molecule=CCCCc1oc2ccccc2c1C(=O)c1cc(I)c(OCCN(CC)CC)c(I)c1 experimental_value=16.2
molecule=Cc1cc(=O)c2c(O)c3c(O)cc(=O)c4c3c3c(cc(O)c1c23)C(C)(C)C=4O experimental_value=32.9
molecule=COc1cc([C@@H]2c3cc4c(cc3[C@H](O)[C@H]3COC(=O)[C@H]23)OCO4)cc(OC)c1OC experimental_value=7.37
molecule=CCCCCCCCCCCCCCCC[n+]1ccccc1 experimental_value=53.6
molecule="CC(C)(C)C1CCC(CC2=C(O)c3ccccc3C(=O)C2=O)CC1 (configuration not stated)" experimental_value=-11.2
molecule=CCN(CC)CCNC(=O)c1c(C)[nH]c(/C=C2\C(=O)Nc3ccc(F)cc32)c1C experimental_value=97.3
molecule=O=C1c2c(O)ccc(O)c2C(=O)c2c(NCCNCCO)ccc(NCCNCCO)c21 experimental_value=43.4
molecule=Cc1nc(N)nc(N)c1-c1ccc(Cl)c(Cl)c1 experimental_value=-2.13
molecule=O=C(CCCCCCC(=O)Nc1ccccc1)NO experimental_value=-17.1
molecule=Cc1cc(C2CCCCC2)n(O)c(=O)c1 experimental_value=-9.21
molecule="CCCCC1C(=O)N(c2ccccc2)N(c2ccc(O)cc2)C1=O (configuration not stated)" experimental_value=-4.57
molecule=Cc1cc(O)c2ccccc2c1O experimental_value=19.2
molecule=C[C@@]12C(=O)OC(=O)[C@]1(C)C1CCC2O1 experimental_value=-0.89
molecule=O=C(O)c1ccc(-n2nc(-c3ccccc3O)nc2-c2ccccc2O)cc1 experimental_value=44.5
molecule=CCN(CC)CCOc1ccc(/C(=C(\Cl)c2ccccc2)c2ccccc2)cc1 experimental_value=-4.05
molecule=COC(=O)c1nc(Cl)c(Cl)nc1N experimental_value=-6.75
molecule=O=c1c(-c2ccccc2)c1-c1ccccc1 experimental_value=-9.18
molecule=Oc1c(Cl)cc(Cl)cc1Sc1cc(Cl)cc(Cl)c1O experimental_value=-0.83

---

Below is a list of entries, each paired with its recorded inhibition value.
- Target: Tyrosine-protein kinase JAK2 (Homo sapiens) (UniProt O60674)
- Sequence (O60674 whole entry, looked up): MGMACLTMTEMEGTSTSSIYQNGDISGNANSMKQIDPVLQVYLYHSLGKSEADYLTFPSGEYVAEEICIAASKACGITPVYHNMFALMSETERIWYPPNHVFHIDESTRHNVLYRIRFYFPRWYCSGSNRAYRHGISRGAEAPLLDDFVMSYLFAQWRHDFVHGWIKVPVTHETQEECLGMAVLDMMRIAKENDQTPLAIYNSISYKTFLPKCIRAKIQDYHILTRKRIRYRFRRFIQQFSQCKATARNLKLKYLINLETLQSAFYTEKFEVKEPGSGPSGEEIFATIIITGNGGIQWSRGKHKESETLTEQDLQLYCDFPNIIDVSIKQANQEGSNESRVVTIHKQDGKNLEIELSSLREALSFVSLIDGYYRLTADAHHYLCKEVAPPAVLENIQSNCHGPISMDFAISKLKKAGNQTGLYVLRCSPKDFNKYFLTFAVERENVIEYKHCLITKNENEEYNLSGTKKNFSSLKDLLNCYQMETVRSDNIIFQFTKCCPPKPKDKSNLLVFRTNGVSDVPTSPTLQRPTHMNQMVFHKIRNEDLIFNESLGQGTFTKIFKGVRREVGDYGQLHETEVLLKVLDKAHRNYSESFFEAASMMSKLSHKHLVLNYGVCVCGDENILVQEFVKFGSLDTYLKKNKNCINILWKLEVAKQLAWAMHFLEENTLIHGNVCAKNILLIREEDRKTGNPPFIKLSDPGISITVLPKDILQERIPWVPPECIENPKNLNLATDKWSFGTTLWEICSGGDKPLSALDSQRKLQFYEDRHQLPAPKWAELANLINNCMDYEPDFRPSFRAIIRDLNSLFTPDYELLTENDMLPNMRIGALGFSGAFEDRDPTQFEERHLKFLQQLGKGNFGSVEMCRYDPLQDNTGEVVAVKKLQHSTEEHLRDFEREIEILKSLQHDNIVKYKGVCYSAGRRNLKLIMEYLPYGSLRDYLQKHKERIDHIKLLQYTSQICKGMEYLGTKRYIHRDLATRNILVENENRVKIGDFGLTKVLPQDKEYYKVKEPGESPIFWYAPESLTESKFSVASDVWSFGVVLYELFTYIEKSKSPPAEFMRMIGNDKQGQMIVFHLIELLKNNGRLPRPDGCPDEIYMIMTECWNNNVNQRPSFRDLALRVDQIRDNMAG
- Test Details: primary HTS for Janus kinase 2 inhibitors, biochemical, Homo sapiens, LANCE Ultra TR-FRET detection, NCGC Pharmaceutical Collection (AID 1117354)
- Condition Label: LANCE Ultra TR-FRET kinase assay, at 20 µM (top of the series)
Property Measured: inhibition (%)

compound=CC(C)(C)C(=O)OCOP(=O)(COCCn1cnc2c(N)ncnc21)OCOC(=O)C(C)(C)C target="Tyrosine-protein kinase JAK2 (Homo sapiens) (UniProt O60674)" experimental_value=-9.81
compound=CNC(=O)c1ccccc1Sc1ccc2c(/C=C/c3ccccn3)n[nH]c2c1 target="Tyrosine-protein kinase JAK2 (Homo sapiens) (UniProt O60674)" experimental_value=94.5
compound=CN1CC[C@H](c2c(O)cc(O)c3c(=O)cc(-c4ccccc4Cl)oc23)[C@H](O)C1 target="Tyrosine-protein kinase JAK2 (Homo sapiens) (UniProt O60674)" experimental_value=67.4
compound=NC(=NCCCCCCN=C(N)/N=C(\N)Nc1ccc(Cl)cc1)/N=C(\N)Nc1ccc(Cl)cc1 target="Tyrosine-protein kinase JAK2 (Homo sapiens) (UniProt O60674)" experimental_value=0.31
compound=CC(C)C[C@H](NC(=O)[C@H](Cc1ccccc1)NC(=O)c1cnccn1)B(O)O target="Tyrosine-protein kinase JAK2 (Homo sapiens) (UniProt O60674)" experimental_value=-3.33
compound=COc1cc2c(c(OC)c1OC)-c1ccc(OC)c(=O)cc1[C@@H](NC(C)=O)CC2 target="Tyrosine-protein kinase JAK2 (Homo sapiens) (UniProt O60674)" experimental_value=-10.4
compound=CC[C@@]1(O)C(=O)OCc2c1cc1n(c2=O)Cc2c-1nc1ccccc1c2/C=N/OC(C)(C)C target="Tyrosine-protein kinase JAK2 (Homo sapiens) (UniProt O60674)" experimental_value=12.1
compound=Cc1ccc(Nc2nccc(N(C)c3ccc4c(C)n(C)nc4c3)n2)cc1S(N)(=O)=O target="Tyrosine-protein kinase JAK2 (Homo sapiens) (UniProt O60674)" experimental_value=81.8
compound=Cc1cc2c(C(C)C)c(O)c(O)c(C=O)c2c(O)c1-c1c(C)cc2c(C(C)C)c(O)c(O)c(C=O)c2c1O target="Tyrosine-protein kinase JAK2 (Homo sapiens) (UniProt O60674)" experimental_value=-0.85
compound=COc1cc2nc(N3CCN(C(=O)c4ccco4)CC3)nc(N)c2cc1OC target="Tyrosine-protein kinase JAK2 (Homo sapiens) (UniProt O60674)" experimental_value=-17.8
compound=COc1ccc(-c2ccc3cc(C(=O)O)ccc3c2)cc1C12CC3CC(CC(C3)C1)C2 target="Tyrosine-protein kinase JAK2 (Homo sapiens) (UniProt O60674)" experimental_value=97.7
compound=Cc1nc(Nc2ncc(C(=O)Nc3c(C)cccc3Cl)s2)cc(N2CCN(CCO)CC2)n1 target="Tyrosine-protein kinase JAK2 (Homo sapiens) (UniProt O60674)" experimental_value=98.4
compound=S=c1nc[nH]c2nc[nH]c12 target="Tyrosine-protein kinase JAK2 (Homo sapiens) (UniProt O60674)" experimental_value=1.43
compound=Nc1nc(=S)c2[nH]cnc2[nH]1 target="Tyrosine-protein kinase JAK2 (Homo sapiens) (UniProt O60674)" experimental_value=10.3
compound=CCCCCCCCCCCCCC[N+](C)(C)C target="Tyrosine-protein kinase JAK2 (Homo sapiens) (UniProt O60674)" experimental_value=-1.09
compound=CC(=O)Oc1ccc(C2(c3ccc(OC(C)=O)cc3)Oc3ccccc3NC2=O)cc1 target="Tyrosine-protein kinase JAK2 (Homo sapiens) (UniProt O60674)" experimental_value=7
compound=CCC1=C[C@@H]2CN(C1)Cc1c([nH]c3ccccc13)[C@@](C(=O)OC)(c1cc3c(cc1OC)N(C)[C@H]1[C@@](O)(C(=O)OC)[C@H](OC(C)=O)[C@]4(CC)C=CCN5CC[C@]31[C@@H]54)C2 target="Tyrosine-protein kinase JAK2 (Homo sapiens) (UniProt O60674)" experimental_value=1.76
compound=COCc1c(C(C)C)nc(C(C)C)c(/C=C/[C@@H](O)C[C@@H](O)CC(=O)O)c1-c1ccc(F)cc1 target="Tyrosine-protein kinase JAK2 (Homo sapiens) (UniProt O60674)" experimental_value=-8.56
compound=Cc1nc2ccc(CN(C)c3ccc(C(=O)N[C@@H](CCC(=O)O)C(=O)O)s3)cc2c(=O)[nH]1 target="Tyrosine-protein kinase JAK2 (Homo sapiens) (UniProt O60674)" experimental_value=14.6
compound=CNC(=O)c1cc(Oc2ccc(NC(=O)Nc3ccc(Cl)c(C(F)(F)F)c3)cc2)ccn1 target="Tyrosine-protein kinase JAK2 (Homo sapiens) (UniProt O60674)" experimental_value=63.2
compound=Cc1cc(C)c(/C=C2\C(=O)Nc3ccccc32)[nH]1 target="Tyrosine-protein kinase JAK2 (Homo sapiens) (UniProt O60674)" experimental_value=68.5
compound=C=C(C)[C@H]1Cc2c(ccc3c2O[C@@H]2COc4cc(OC)c(OC)cc4[C@@H]2C3=O)O1 target="Tyrosine-protein kinase JAK2 (Homo sapiens) (UniProt O60674)" experimental_value=4.93
compound=COC(=O)Nc1nc2ccc(C(=O)c3cccs3)cc2[nH]1 target="Tyrosine-protein kinase JAK2 (Homo sapiens) (UniProt O60674)" experimental_value=12.9
compound=C=CC(=O)Nc1cc2c(Nc3ccc(F)c(Cl)c3)ncnc2cc1OCCCN1CCOCC1 target="Tyrosine-protein kinase JAK2 (Homo sapiens) (UniProt O60674)" experimental_value=68.2
compound=O=C(CCl)c1ccc(Cl)cc1Cl target="Tyrosine-protein kinase JAK2 (Homo sapiens) (UniProt O60674)" experimental_value=-17.1
compound=COc1cc(-c2ccc(=O)[nH]n2)ccc1OC(F)F target="Tyrosine-protein kinase JAK2 (Homo sapiens) (UniProt O60674)" experimental_value=-10.1
compound=CCCCCCNC(=O)n1cc(F)c(=O)[nH]c1=O target="Tyrosine-protein kinase JAK2 (Homo sapiens) (UniProt O60674)" experimental_value=-3.52
compound=CCCCCCCCCCCCCCCCCCNC(=O)OC1CCN(C(=O)OC[C@H](COC(=O)N(Cc2cccc[n+]2CC)C(=O)c2ccccc2OC)OC)CC1 target="Tyrosine-protein kinase JAK2 (Homo sapiens) (UniProt O60674)" experimental_value=-2.67
compound="CCC(C)n1ncn(-c2ccc(N3CCN(c4ccc(OC[C@H]5CO[C@](Cn6cncn6)(c6ccc(Cl)cc6Cl)O5)cc4)CC3)cc2)c1=O (some centres not stated)" target="Tyrosine-protein kinase JAK2 (Homo sapiens) (UniProt O60674)" experimental_value=10.5
compound="Cc1ccccc1C(=O)Nc1ccc(C(=O)N2CCCC(N(C)C)c3ccccc32)cc1 (configuration not stated)" target="Tyrosine-protein kinase JAK2 (Homo sapiens) (UniProt O60674)" experimental_value=16
compound=Cc1ccc2nc(N)[nH]c(=O)c2c1Sc1ccncc1 target="Tyrosine-protein kinase JAK2 (Homo sapiens) (UniProt O60674)" experimental_value=16.7
compound=O=c1[nH]c(=O)n([C@H]2C[C@H](O)[C@@H](CO)O2)cc1F target="Tyrosine-protein kinase JAK2 (Homo sapiens) (UniProt O60674)" experimental_value=-18.6
